experimental_system: Signal transducer and activator of transcription 3 (Homo sapiens, UniProt P40763, C542S)
Sequence (P40763 2-770 C542S limits assumed): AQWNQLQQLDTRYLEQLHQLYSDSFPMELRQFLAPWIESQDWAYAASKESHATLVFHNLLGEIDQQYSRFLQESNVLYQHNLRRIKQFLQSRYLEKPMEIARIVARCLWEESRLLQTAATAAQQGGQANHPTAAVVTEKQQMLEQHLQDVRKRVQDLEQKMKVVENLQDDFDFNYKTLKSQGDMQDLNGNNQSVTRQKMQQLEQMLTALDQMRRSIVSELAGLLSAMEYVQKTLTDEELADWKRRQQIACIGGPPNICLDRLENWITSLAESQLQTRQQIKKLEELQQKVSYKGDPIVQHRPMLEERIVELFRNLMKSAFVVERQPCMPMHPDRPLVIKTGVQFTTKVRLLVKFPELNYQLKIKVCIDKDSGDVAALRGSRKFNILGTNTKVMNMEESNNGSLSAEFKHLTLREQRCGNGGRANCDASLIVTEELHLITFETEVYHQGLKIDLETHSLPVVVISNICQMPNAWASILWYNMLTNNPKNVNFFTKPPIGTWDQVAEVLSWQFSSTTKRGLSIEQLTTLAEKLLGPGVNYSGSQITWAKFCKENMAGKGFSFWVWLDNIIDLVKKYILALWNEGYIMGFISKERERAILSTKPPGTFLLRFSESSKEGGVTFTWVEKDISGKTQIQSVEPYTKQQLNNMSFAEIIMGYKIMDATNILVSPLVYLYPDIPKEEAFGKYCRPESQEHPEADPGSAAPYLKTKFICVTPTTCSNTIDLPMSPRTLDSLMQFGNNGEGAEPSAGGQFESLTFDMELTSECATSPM
test: Inhibition of recombinant wild type tyrosine phosphorylated C-terminal 6His tagged human STAT3 C542S mutant (127 to 711 residues) DNA-binding activity transfected in v-Src transformed mouse NIH3T3 cell nuclear extract preincubated for 30 mins followed by addition of radiolabeled hSIE and measured after 30 mins by EMSA analysis
experimental_readout: pIC50
// field semantics: pIC50 = negative decimal log of concentration (mol/L)

Check the records and state pIC50 for "O=C([C@H]1CCN1S(=O)(=O)c1c(F)c(F)c(F)c(F)c1F)N(Cc1ccc(C2CCCCC2)cn1)c1ccc2c(=O)[nH]ncc2c1"
5.26

###

experimental_system: Signal transducer and activator of transcription 3 (Homo sapiens, UniProt P40763)
Sequence (P40763 whole entry, the tested form may be a part): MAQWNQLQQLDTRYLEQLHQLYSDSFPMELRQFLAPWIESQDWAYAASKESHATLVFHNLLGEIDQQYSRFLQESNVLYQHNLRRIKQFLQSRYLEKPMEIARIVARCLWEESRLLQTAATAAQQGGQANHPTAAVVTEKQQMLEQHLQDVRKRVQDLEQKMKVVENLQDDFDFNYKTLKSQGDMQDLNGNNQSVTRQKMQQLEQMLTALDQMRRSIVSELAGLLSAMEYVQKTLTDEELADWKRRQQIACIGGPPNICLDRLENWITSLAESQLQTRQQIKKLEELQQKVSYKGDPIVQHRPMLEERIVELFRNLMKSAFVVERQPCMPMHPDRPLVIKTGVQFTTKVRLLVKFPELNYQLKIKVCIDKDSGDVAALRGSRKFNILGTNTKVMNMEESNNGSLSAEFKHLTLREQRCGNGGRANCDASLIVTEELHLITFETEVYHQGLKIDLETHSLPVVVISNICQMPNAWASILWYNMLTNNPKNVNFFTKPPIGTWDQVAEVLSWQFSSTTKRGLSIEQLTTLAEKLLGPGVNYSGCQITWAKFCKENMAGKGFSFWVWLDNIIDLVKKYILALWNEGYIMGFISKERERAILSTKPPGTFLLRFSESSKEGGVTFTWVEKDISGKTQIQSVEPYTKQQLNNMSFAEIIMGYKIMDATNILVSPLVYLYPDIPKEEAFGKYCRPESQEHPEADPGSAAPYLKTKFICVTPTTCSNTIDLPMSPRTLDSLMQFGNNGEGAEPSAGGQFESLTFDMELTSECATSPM
test: Displacement of 5-carboxyfluorescein GpYLPQTV-NH2 probe from C-terminal 6His-tagged recombinant human STAT3 (127 to 711 residues) SH2 domain extracted from Escherichia coli BL21 (DE3) assessed as inhibition of dimerization preincubated for 60 mins followed by probe addition and measured after 30 mins by fluorescence polarization assay
Where a SMILES comes first, the peptide text is derived from it. [ ]: non-standard residue; d: D form. pY = N[C@@H](Cc1ccc(OP(=O)(O)O)cc1)C(=O)O
Entries and their IC50 values follow.

Illustrative cases are given below, each with its answer.
- molecule: "O=C(O)c1ccc(N(Cc2cnc(C3CCCCC3)cn2)C(=O)[C@H]2CCN2S(=O)(=O)c2c(F)c(F)c(Cl)c(F)c2F)cc1O"
  observed_value: "181 µM"
- molecule: "CC(C)C[C@H](NC(=O)[C@H](Cc1ccc(OP(=O)(O)O)cc1)NC(=O)CN)C(=O)N1CCC[C@H]1C(=O)N[C@@H](CCC(N)=O)C(=O)N[C@H](C(=O)N[C@H](C(=O)O)C(C)C)[C@@H](C)O (H-G[pY]LPQTV-OH)"
  observed_value: "0.19 µM"
- molecule: "CN(CC(=O)N(Cc1ccc(C2CCCCC2)cc1)c1ccc(C(=O)O)c(O)c1)S(=O)(=O)c1c(F)c(F)c(Cl)c(F)c1F"
  observed_value: "35.5 µM"
- molecule: "O=C([C@H]1CCN1S(=O)(=O)c1c(F)c(F)c(F)c(F)c1F)N(Cc1ccc(C2CCCCC2)cn1)c1ccc2c(=O)[nH]ncc2c1"
  observed_value: "> 600 µM"

Note: attention shifts to another entry.
Check the records and state IC50 for "Cc1ccc(S(=O)(=O)N2CC[C@@H]2C(=O)N(Cc2ccc(C3CCCCC3)cn2)c2ccc(C(=O)O)c(O)c2)cc1"
82.5 µM

###

experimental_system: Signal transducer and activator of transcription 3 (Homo sapiens, UniProt P40763)
test: Displacement of 5-carboxyfluorescein GpYLPQTV-NH2 probe from C-terminal 6His-tagged recombinant human STAT3 (127 to 711 residues) SH2 domain extracted from Escherichia coli BL21 (DE3) assessed as inhibition of dimerization preincubated for 30 mins followed by probe addition and measured after 30 mins by fluorescence polarization assay
Where a SMILES comes first, the peptide text is derived from it. [ ]: non-standard residue; d: D form. pY = N[C@@H](Cc1ccc(OP(=O)(O)O)cc1)C(=O)O
Entries and their pIC50 values follow.
// field semantics: pIC50 = negative decimal log of concentration (mol/L)

- compound: "CN(CC(=O)N(Cc1ccc(C2CCCCC2)cc1)c1ccc(C(=O)O)c(O)c1)S(=O)(=O)c1c(F)c(F)c(Cl)c(F)c1F"
  experimental_system: "Signal transducer and activator of transcription 3 (Homo sapiens, UniProt P40763)"
  pIC50: 4.38
- compound: "O=C(O)c1ccc(N(Cc2cnc(C3CCCCC3)cn2)C(=O)[C@H]2CCN2S(=O)(=O)c2c(F)c(F)c(Cl)c(F)c2F)cc1O"
  experimental_system: "Signal transducer and activator of transcription 3 (Homo sapiens, UniProt P40763)"
  pIC50: 3.73
- compound: "Cc1ccc(S(=O)(=O)N2CC[C@@H]2C(=O)N(Cc2ccc(C3CCCCC3)cn2)c2ccc(C(=O)O)c(O)c2)cc1"
  experimental_system: "Signal transducer and activator of transcription 3 (Homo sapiens, UniProt P40763)"
  pIC50: 4.08

Note: attention shifts to another entry.
Check the records and state pIC50 for CC(C)C[C@H](NC(=O)[C@H](Cc1ccc(OP(=O)(O)O)cc1)NC(=O)CN)C(=O)N1CCC[C@H]1C(=O)N[C@@H](CCC(N)=O)C(=O)N[C@H](C(=O)N[C@H](C(=O)O)C(C)C)[C@@H](C)O (H-G[pY]LPQTV-OH)
6.66
